# key: entry, value: log10 IC50
target: Src kinase (Homo sapiens, UniProt P12931); construct: purchased Upstate Bioteolnology (sic; Upstate Biotechnology); later HMR stock 27597-019E1 #14-117; assay: Phosphorylation assay of Src kinase inhibitors (radiometric, 96 well filter plate); type: biochemical; settings: duplicates, tested in the range of 400-0.098 µM; 10 µM peptide substrate (FIYGAFKKKKNH2), 5 µM unlabeled ATP, room temperature 30 min; read-out: IC50
Sequence (P12931 whole entry): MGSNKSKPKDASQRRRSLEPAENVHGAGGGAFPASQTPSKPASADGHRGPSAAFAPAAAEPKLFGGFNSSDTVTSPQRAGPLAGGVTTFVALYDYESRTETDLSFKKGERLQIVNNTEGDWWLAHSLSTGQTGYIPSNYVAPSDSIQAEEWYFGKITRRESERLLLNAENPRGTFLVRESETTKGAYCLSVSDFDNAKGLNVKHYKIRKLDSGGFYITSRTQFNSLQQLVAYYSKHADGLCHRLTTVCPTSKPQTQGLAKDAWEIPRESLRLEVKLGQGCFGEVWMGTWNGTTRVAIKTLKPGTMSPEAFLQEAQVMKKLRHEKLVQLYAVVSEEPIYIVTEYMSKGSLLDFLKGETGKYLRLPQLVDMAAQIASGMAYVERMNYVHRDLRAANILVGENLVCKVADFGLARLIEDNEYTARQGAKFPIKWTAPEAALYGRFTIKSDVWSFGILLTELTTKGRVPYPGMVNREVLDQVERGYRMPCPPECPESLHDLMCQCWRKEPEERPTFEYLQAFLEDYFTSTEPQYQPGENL
Recall that a logarithmic scale is used here: each number is log10 of IC50 in µM.

Use these answered entries as a reference point.
NC(=O)CNC(=O)c1cc2ccccc2cc1OCCCCNC(=O)C(=C/c1ccc(O)cc1)/C(N)=N/O ... 1.20
CN(C)[C@@H](Cc1ccccc1)C(=O)NCCCCOc1cc2ccccc2cc1C(=O)NCC(N)=O ... 1.70
NC(=O)CNC(=O)c1cc2ccccc2cc1OCCCCNC(=O)[C@@H](N)Cc1ccccc1 ... -0.01

*Q* Fill in the blank: the reported log10 IC50 of NC(=O)CNC(=O)c1cc2ccccc2cc1OCCCCNC(=O)C1Cc2ccc(O)cc2CN1 (stereo not shown) is ____.
*A* 0.58
